endpoint: melting point

*Q* Please look up its melting point: COc1ccc2c(-c3c(O)c(C)nn(C)c3=O)c(-c3ccccc3OC)sc2c1 [Compound No. 3-065]
*A* 243 to 244 °C

*Q* Quick one: melting point for COc1ccccc1-c1sc2ccc(C3CC3)cc2c1-c1c(O)c(C)nn(C)c1=O [Compound No. 2-160] ?
*A* 182 to 184 °C

*Q* What value of melting point has been reported for the following compound? COc1ccccc1-c1sc2ccc(N)cc2c1-c1c(OC)c(C)nn(C)c1=O [Compound No. 2-174]
*A* 219 to 221 °C

*Q* Given the entry COc1ccc2c(-c3c(O)c(Cl)nn(C)c3=O)c(-c3ccccc3OC)sc2c1 [Compound No. 3-088] , report its measured melting point.
*A* 209 to 211 °C

*Q* Recorded melting point for Cc1nn(C)c(=O)c(-c2c(-n3cc(Cl)cn3)sc3ccccc23)c1O [Compound No. 1-097] , please?
*A* 232 to 234 °C

*Q* Returns the measured melting point for the input compound. Input: COc1ccccc1-c1sc2ccc(I)cc2c1-c1c(OC)c(C)nn(C)c1=O [Compound No. 2-131]
*A* 161 to 163 °C

*Q* I'd like to know its melting point. The compound in question is COc1ccccc1-c1sc2cc(OCC(F)(F)F)ccc2c1-c1c(O)c(C)nn(C)c1=O [Compound No. 3-116]
*A* 216 to 218 °C
